Assay: in vitro
Conditions: human, CEM cells
Quantity Measured: IC50 at 5 day (µM)

In [3]: df
Out[3]:
                                 smiles_str  unit_info  endpoint_value
0  CC(=NNC(=O)CN1c2c(-c3ccccc3)n[nH]c2-c2ccccc2S1(=O)=O)c1ccc2c(c1)OCCO2         µM            23.9
1  CC(=NNC(=O)CN1c2c(-c3ccccc3)n[nH]c2-c2ccccc2S1(=O)=O)c1sccc1Br         µM            19.6
2  CC(=NNC(=O)CN1c2c(-c3ccccc3)n[nH]c2-c2ccccc2S1(=O)=O)c1ccc2ccccc2c1         µM            24.2
3  CC(=NNC(=O)CN1c2c(-c3ccccc3)n[nH]c2-c2ccccc2S1(=O)=O)c1cc(C)sc1C         µM            17.6
4  CC(=NNC(=O)CN1c2c(-c3ccccc3)n[nH]c2-c2ccccc2S1(=O)=O)c1cccs1         µM            23.3
5  CC(=NNC(=O)CN1c2c(-c3ccccc3)n[nH]c2-c2ccccc2S1(=O)=O)c1ccc(C)o1         µM            15.4
6  CC(=NNC(=O)CN1c2c(-c3ccccc3)n[nH]c2-c2ccccc2S1(=O)=O)c1ccc[nH]1         µM              20

====

System: VERO cells
Assay: Cytotoxic assay, VERO cells
Assay type: cell-based
Quantity Measured: toxicity in VERO cells (in words)

# count of solved cases: 6
In [3]: df
Out[3]:
                                 smiles_str  endpoint_value
0  O=C(CN1c2c(-c3ccccc3)n[nH]c2-c2ccccc2S1(=O)=O)NN=Cc1cccs1     no toxicity
1  CC(=NNC(=O)CN1c2c(-c3ccccc3)n[nH]c2-c2ccccc2S1(=O)=O)c1cc2ccccc2oc1=O       non-toxic
2  CC(=NNC(=O)CN1c2c(-c3ccccc3)n[nH]c2-c2ccccc2S1(=O)=O)c1sccc1Cl       non-toxic
3  CC(=NNC(=O)CN1c2c(-c3ccccc3)n[nH]c2-c2ccccc2S1(=O)=O)c1cccs1     no toxicity
4  CC(=NNC(=O)CN1c2c(-c3ccccc3)n[nH]c2-c2ccccc2S1(=O)=O)c1sc(N)nc1C     no toxicity
5  CC(=NNC(=O)CN1c2c(-c3ccccc3)n[nH]c2-c2ccccc2S1(=O)=O)c1ccsc1     no toxicity

# toxicity in VERO cells (in words) lookup, item "CC(=NNC(=O)CN1c2c(-c3ccccc3)n[nH]c2-c2ccccc2S1(=O)=O)c1cc(Cl)sc1Cl"
toxic

# toxicity in VERO cells (in words) lookup, item "CC(=NNC(=O)CN1c2c(-c3ccccc3)n[nH]c2-c2ccccc2S1(=O)=O)c1ccc2c(c1)OCCO2"
non-toxic

====

System: primary human PBM cells
Assay: Cytotoxic assay, primary human PBM cells
Type: cell-based
Settings: primary human PBM cells (lymphocytes)
Quantity Measured: toxicity in primary human PBM cells (in words)

# count of solved cases: 5
In [3]: df
Out[3]:
                                 smiles_str  endpoint_value
0  CC(=NNC(=O)CN1c2c(-c3ccccc3)n[nH]c2-c2ccccc2S1(=O)=O)c1cc2ccccc2oc1=O       non-toxic
1  CC(=NNC(=O)CN1c2c(-c3ccccc3)n[nH]c2-c2ccccc2S1(=O)=O)c1sccc1Cl       non-toxic
2  CC(=NNC(=O)CN1c2c(-c3ccccc3)n[nH]c2-c2ccccc2S1(=O)=O)c1sc(N)nc1C     no toxicity
3  CC(=NNC(=O)CN1c2c(-c3ccccc3)n[nH]c2-c2ccccc2S1(=O)=O)c1ccc2c(c1)OCCO2       non-toxic
4  CC(=NNC(=O)CN1c2c(-c3ccccc3)n[nH]c2-c2ccccc2S1(=O)=O)c1cc(Cl)sc1Cl           toxic

# toxicity in primary human PBM cells (in words) lookup, item "O=C(CN1c2c(-c3ccccc3)n[nH]c2-c2ccccc2S1(=O)=O)NN=Cc1cccs1"
no toxicity

# toxicity in primary human PBM cells (in words) lookup, item "CC(=NNC(=O)CN1c2c(-c3ccccc3)n[nH]c2-c2ccccc2S1(=O)=O)c1ccsc1"
no toxicity

# toxicity in primary human PBM cells (in words) lookup, item "CC(=NNC(=O)CN1c2c(-c3ccccc3)n[nH]c2-c2ccccc2S1(=O)=O)c1cccs1"
no toxicity

====

Assay: Cytotoxic assay, VERO cells
Format: cell-based
Conditions: African green monkey
Quantity Measured: IC50 at 5 day (µM)
All answers are understood in µM, so give the number only.

# count of solved cases: 2
                                 smiles_str  unit_info  endpoint_value
0  CC(=NNC(=O)CN1c2c(-c3ccccc3)n[nH]c2-c2ccccc2S1(=O)=O)c1ccc(Br)s1         µM            18.1
1  CC(=NNC(=O)CN1c2c(-c3ccccc3)n[nH]c2-c2ccccc2S1(=O)=O)c1nccs1         µM            43.1

# IC50 at 5 day lookup, item "CC(=NNC(=O)CN1c2c(-c3ccccc3)n[nH]c2-c2ccccc2S1(=O)=O)c1cccs1"
77.2

====

Experiment: Cytotoxic assay, VERO cells
Assay type: cell-based
Settings: African green monkey
Quantity Measured: IC50 at 5 day (µM)
All answers are understood in µM, so give the number only.

                                   molecule  quantity_measured  unit_info  endpoint_value
0  CC(=NNC(=O)CN1c2c(-c3ccccc3)n[nH]c2-c2ccccc2S1(=O)=O)c1ccc(Cl)s1 [5g]      IC50 at 5 day         µM            57.4
1  CC(=NNC(=O)CN1c2c(-c3ccccc3)n[nH]c2-c2ccccc2S1(=O)=O)c1ccsc1 [5c]      IC50 at 5 day         µM            78.7
2  O=C(CN1c2c(-c3ccccc3)n[nH]c2-c2ccccc2S1(=O)=O)NN=Cc1cccs1 [5w]      IC50 at 5 day         µM            41.8
3  CC(=NNC(=O)CN1c2c(-c3ccccc3)n[nH]c2-c2ccccc2S1(=O)=O)c1ccc(C)s1 [5m]      IC50 at 5 day         µM            30.6
4  CC(=NNC(=O)CN1c2c(-c3ccccc3)n[nH]c2-c2ccccc2S1(=O)=O)c1cc(C)cs1 [5j]      IC50 at 5 day         µM               6
5  CC(=NNC(=O)CN1c2c(-c3ccccc3)n[nH]c2-c2ccccc2S1(=O)=O)c1ccc([N+](=O)[O-])s1 [5r]      IC50 at 5 day         µM            43.6
6  CC(=NNC(=O)CN1c2c(-c3ccccc3)n[nH]c2-c2ccccc2S1(=O)=O)c1ccncc1 [5v]      IC50 at 5 day         µM            84.1
7  CC(=NNC(=O)CN1c2c(-c3ccccc3)n[nH]c2-c2ccccc2S1(=O)=O)c1ccc[nH]1 [5o]      IC50 at 5 day         µM            22.3

# IC50 at 5 day lookup, item CC(=NNC(=O)CN1c2c(-c3ccccc3)n[nH]c2-c2ccccc2S1(=O)=O)c1sccc1C [5b]
75.3

# IC50 at 5 day lookup, item CC(=NNC(=O)CN1c2c(-c3ccccc3)n[nH]c2-c2ccccc2S1(=O)=O)c1cc(C)oc1C [5t]
41.4

# IC50 at 5 day lookup, item CC(=NNC(=O)CN1c2c(-c3ccccc3)n[nH]c2-c2ccccc2S1(=O)=O)c1cc(C)sc1C [5d]
44.4

# IC50 at 5 day lookup, item CC(=NNC(=O)CN1c2c(-c3ccccc3)n[nH]c2-c2ccccc2S1(=O)=O)c1cc(Cl)sc1Cl [5i]
38.8

# IC50 at 5 day lookup, item CC(=NNC(=O)CN1c2c(-c3ccccc3)n[nH]c2-c2ccccc2S1(=O)=O)c1cc2ccccc2o1 [5n]
23

====

Assay: Cytotoxic assay, primary human PBM cells
Assay type: cell-based
Conditions: human, primary human PBM cells
Quantity Measured: IC50 at 5 day (µM)
All answers are understood in µM, so give the number only.

# count of solved cases: 2
                                 smiles_str  unit_info  endpoint_value
0  CC(=NNC(=O)CN1c2c(-c3ccccc3)n[nH]c2-c2ccccc2S1(=O)=O)c1sccc1C         µM            56.2
1  CC(=NNC(=O)CN1c2c(-c3ccccc3)n[nH]c2-c2ccccc2S1(=O)=O)c1ccc2c(c1)OCCO2         µM            67.1

# IC50 at 5 day lookup, item "CC(=NNC(=O)CN1c2c(-c3ccccc3)n[nH]c2-c2ccccc2S1(=O)=O)c1ccc[nH]1"
41.4
